Exercise: state measured Population Tubulin-Different-Phenotype (%) for each of the molecules provided.
# Tested on: Fibroblast
# experimentDescription: Multiplex assay against human fibroblast
# Type: toxicity, cell-based
# conditionDetails: 48 h, 1 µM, compound concentration 1 uM, replicate 1
Answers are plain numbers, in %.

Use the examples below as a reference point.
>>> valueobserved("Cc1cc(=O)n(C)c2cc(N3C(=O)CC[C@H](NS(=O)(=O)CC(C)C)[C@H]3c3ccc(Cl)cc3)ccc12")
27
>>> valueobserved("CC(F)(F)CN1CCOc2c(nn(-c3ccccc3Cl)c2-c2ccc(Cl)cc2)C1=O")
35
>>> valueobserved("CCc1nn2c(C)cc(C)nc2c1Cc1ccc(-c2nnc(C3CCNCC3)o2)cc1")
32
>>> valueobserved("O=C(NCCNCC(O)COc1ccc(O)cc1)N1CCOCC1.O=C(NCCNCC(O)COc1ccc(O)cc1)N1CCOCC1.O=C(O)/C=C/C(=O)O (stereo not drawn) [XAMOTEROL FUMARATE]")
21
>>> valueobserved("COc1cc2nc(N3CCN(C(=O)c4ccco4)CC3)nc(N)c2cc1OC.Cl [PRAZOSIN HYDROCHLORIDE]")
22

Below is a list of molecules. For each, state its recorded Population Tubulin-Different-Phenotype (%).
1. CC(C)(O)C(=O)N1CCN(c2ccc(C(F)(F)F)c(C3=C(c4c[nH]c5ccccc45)C(=O)NC3=O)c2)CC1
2. O=C(Nc1cc(-c2ccccc2)nn1-c1ccccc1F)c1ccc([N+](=O)[O-])cc1
3. CCCCCCNC(=O)Nc1ccc(S(=O)(=O)Nc2ccc(CCNC[C@H](O)COc3ccc(O)cc3)cc2)cc1

Result string:
1. 38
2. 18
3. 31

---

# System: U2OS
# experimentDescription: Multiplex assay against U2OS
# Assay type: toxicity, cell-based
# conditionDetails: human, 48 h, 1 µM, compound concentration 1 uM, replicate 1
Non-standard residues stand in square brackets, D forms with d. Residues, ends and D or L forms follow the SMILES beside them.
Returns true (1) if the recorded Population Pyknosed Nuclei (%) is greater than or equal to 9%, and false (0) otherwise.

Here's what some known entries look like.
>>> labelvalue("CN1CCN(c2ccc(Nc3c4ccccc4nc4ccccc34)cc2)CC1.Cl.Cl.O")
"true (1)"
>>> labelvalue("COC(c1ccccc1)(c1ccccc1)[C@H](Oc1nc(C)cc(C)n1)C(=O)O")
"true (1)"
>>> labelvalue("COc1cc2nc(N3CCN(C(=O)COc4c(OC)cccc4C(C)C)CC3)nc(N)c2cc1OC.Cl.Cl")
"false (0)"
>>> labelvalue("COc1ccc2[nH]c(I)c(CCNC(C)=O)c2c1")
"false (0)"
>>> labelvalue("Cc1sc2c(c1C)C(c1ccc(Cl)cc1)=N[C@H](CC(=O)OC(C)(C)C)c1nnc(C)n1-2")
"false (0)"

Query string: Does "O=c1ccc2ccc(OCCCCN3CCN(c4cccc5sccc45)CC3)cc2[nH]1" have a reported Population Pyknosed Nuclei (%) of at least 9%?
Result string: true (1)

Query string: Given "Cc1cc(-c2ccc3c(c2)CC[C@H]3N2CC3(CCN(C(=O)Cc4cn5cc(C)sc5n4)CC3)C2)ncn1" , state whether its Population Pyknosed Nuclei (%) is at least 9%.
Result string: false (0)

Query string: # check: Population Pyknosed Nuclei (%) of "C[C@@H]1CC(=O)Nc2cccc(-c3ccc4c(c3)c(-c3cnn(C)c3)nn4C)c2N1" is greater than or equal to 9%
Result string: false (0)

Query string: Hello, I need to know if CC(C)C[C@@H]1NC(=O)[C@@H](C(C)C)NC(=O)[C@@H]2CCCN2C(=O)[C@@H](CC(=O)O)NC(=O)[C@@H](Cc2c[nH]c3ccccc23)NC1=O [BQ-123] (cyclo(L[dW][dD]P[dV])) has measured Population Pyknosed Nuclei (%) not below 9%. Thanks!
Result string: false (0)
